Where these numbers come from: the Immune Epitope Database (IEDB)

Target: HLA-B*53:01
Assay: IEDB peptide-MHC binding, purified MHC/competitive/radioactivity; bounds were set here for any values at or beyond the usual limits of such assays
Settings: source organism: Bordetella pertussis
Overview of recorded pIC50 for various sequences
Here pIC50 is given on a logarithmic scale as minus log10 of the concentration in mol/L.

Previously resolved entries follow.
INSERT INTO measurements (residues, recordedvalue) VALUES
  ('TAGATPFDI', 5.31),
  ('MPIDRKTLC', 5.79),
  ('GAASSYFEY', 4.33),
  ('LAANGNGQW', 5.78);

Look up and report measured pIC50 (HLA-B*53:01) for the following sequence: ASPRRARRA
4.16

###

Target: HLA-B*44:03
Test: IEDB peptide-MHC binding, purified MHC/competitive/radioactivity; bounds were set here for any values at or beyond the usual limits of such assays
Conditions: source organism: Bordetella pertussis
Label key: Yes means IC50 under 20 µM; No means IC50 of 20 µM or more.

Example results:
INSERT INTO measurements (residues, cat) VALUES
  ('AEVTDTSPS', 'No'),
  ('RELSAAANA', 'No'),
  ('AAQATVVQR', 'No'),
  ('FEPGITTNY', 'No');

Lab note: confirm whether the reported IC50 for this sequence is below 20 µM, equality not counting. sequence: GAASSYFEY
No

Lab note: confirm whether the reported IC50 for this sequence is below 20 µM, equality not counting. sequence: YEYIWGLYQ
Yes
